Biological target: T1, recombinant human IGF-II (Insulin-like Growth Factor II) (human, UniProt P01344 25-91, biotinylated (Biotinyl-IGF-II, GroPep) where immobilised in SPR, site not stated; not biotinylated in ITC and as SPR analyte)
T1 construct: also called IGF2; IGF-2
T1 sequence (P01344 25-91 limits assumed): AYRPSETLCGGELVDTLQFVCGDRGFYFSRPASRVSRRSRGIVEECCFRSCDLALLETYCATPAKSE
Experiment: SPR, IGF-II immobilised, kinetic fit

| binder | koff / s⁻¹ |
| --- | --- |
| wild type IGF2R domain 11 (amino acids 1511-1650) with C-terminal His6 tag, from Pichia pastoris (receptor, also called WT; wild type domain 11) NEHDDCQVTNPSTGHLFDLSSLSGRAGFTAAYSEKGLVYMSICGENENCPPGVGACFGQTRISVGKANKRLRYVDQVLQLVYKDGSPCPSKSGLSYKSVISFVCRPEAGPTNRPMLISLDKQTCTLFFSWHTPLACEQATHHHHHH | 0.053 |
| IGF2R domain 11 E1544V (amino acids 1511-1650, C-terminal His6 tag, from Pichia pastoris) (receptor) NEHDDCQVTNPSTGHLFDLSSLSGRAGFTAAYSVKGLVYMSICGENENCPPGVGACFGQTRISVGKANKRLRYVDQVLQLVYKDGSPCPSKSGLSYKSVISFVCRPEAGPTNRPMLISLDKQTCTLFFSWHTPLACEQATHHHHHH | 0.041 |
| IGF2R domain 11 E1544A (amino acids 1511-1650, C-terminal His6 tag, from Pichia pastoris) (receptor) NEHDDCQVTNPSTGHLFDLSSLSGRAGFTAAYSAKGLVYMSICGENENCPPGVGACFGQTRISVGKANKRLRYVDQVLQLVYKDGSPCPSKSGLSYKSVISFVCRPEAGPTNRPMLISLDKQTCTLFFSWHTPLACEQATHHHHHH | 0.033 |
| IGF2R domain 11 E1544K (amino acids 1511-1650, C-terminal His6 tag, from Pichia pastoris) (receptor, also called enhanced mutant) NEHDDCQVTNPSTGHLFDLSSLSGRAGFTAAYSKKGLVYMSICGENENCPPGVGACFGQTRISVGKANKRLRYVDQVLQLVYKDGSPCPSKSGLSYKSVISFVCRPEAGPTNRPMLISLDKQTCTLFFSWHTPLACEQATHHHHHH | 0.023 |
